# Lookup of reported CC50 at 72 h keyed by entry
Test: MTT test of cytotoxicity on HepG2.2.15 cells
Type: cell-based
Details: human, read-out: CC50 (μM) (HepG2. 2. 15)
Procedure: A tube of frozen HepG2.2.15 cells taken from a liquid nitrogen tank was quickly placed into a water bath at 42° C. and shaken to thaw. […] Cytotoxicity of the compound on HepG2.2.15 cells was tested with the MTT colorimetric assay established by Mosmann. […] The OD value in each well was read using a microplate reader (measurement wavelength 490 nm, reference wavelength 630 nm). The result was recorded and the percentage inhibition of HepG2.2.15 cells by each compound was calculated: […]

These solved cases illustrate the format of a correct answer.
1) [N-]=[N+]=N[C@]1(CO)O[C@@H](n2ccc(NCCc3c[nH]c4ccccc34)nc2=O)C(F)C1O (stereo partly drawn) [Compound 5-20]: > 250 µM
2) COC(=O)[C@@H](Cc1cc2ccccc2[nH]1)Nc1ccn([C@@H]2O[C@@](CO)(N=[N+]=[N-])C(O)C2F)c(=O)n1 (stereo partly drawn) [Compound 7c]: ≥ 280 µM

In the following, a different compound is considered.
In: Recorded CC50 at 72 h of [N-]=[N+]=N[C@]1(CO)O[C@@H](n2ccc(N[C@@H](Cc3cc4ccccc4[nH]3)C(=O)O)nc2=O)C(F)C1O (stereo partly drawn) [Compound 8d] , please.
Out: ≥ 25 µM
